The measurements presented in this section are drawn from PubChem BioAssay (NCI).

assay: NCI Yeast Anticancer Drug Screen. Data for the sgs1 strain (AID 173);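 also: 0% = growth of vehicle-only control cultures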; conditions: S. cerevisiae sgs1 mutant, at 3.7 µM, active compounds read high
This is part of a sample that, as a whole, favours compounds with a hit. Of some 79,000 tested, about 15% had one in any assay. Active and inactive are the calls of the source. Rule as the data show it: active = growth inhibition above about 70%; inactive = the rest.
reported.metric: growth inhibition

- CC1=C[C@H]2O[C@@H]3C[C@H]4OC(=O)/C=C\C=C\C(C(C)O)OCC(O)C(C)CC(=O)OC[C@@]2(C[C@@H]1O)[C@]4(C)[C@@]31CO1 (stereo partly drawn): -17% (inactive)
- CS(=O)(=O)OCCN(CCOS(C)(=O)=O)c1ccc(C=O)cc1: 35% (inactive)
- CO[C@H](/C(C)=C/C=C/C(C)=C/c1coc(C)n1)[C@H](C)[C@H]1C[C@@H](O)[C@@]2(C)O[C@H]2/C=C/[C@@H](C)[C@@H]2C[C@@H](CC(=O)O2)C[C@H]2O[C@@H]2C(=O)O1: 2% (inactive)
- CC1CCC2(NC1)OC1CC3C4CCC5CC(OC6OC(CO)C(OC7OC(CO)C(O)C(OC8OCC(O)C(O)C8O)C7OC7OC(CO)C(O)C(O)C7O)C(O)C6O)CCC5(C)C4CCC3(C)C1C2C (stereo not drawn): 0% (inactive)
- O=C(O)C1C2C=CC(C2)C1c1ccccc1 (stereo not drawn): -5% (inactive)
- O=[N+]([O-])c1oc2ccc3ccccc3c2c1CCO: 88% (active)
- CCC1(OC(=O)CN)C(=O)OCc2c1cc1n(c2=O)Cc2cc3ccccc3nc2-1 (stereo not drawn): 38% (inactive)
- NCCc1ccc(OCc2ccccc2)c(OCc2ccccc2)c1: -5% (inactive)

---

assay: NCI Yeast Anticancer Drug Screen. Data for the bub3 strain (AID 167); conditions: S. cerevisiae bub3 mutant strain, at 50.0 µM, active compounds read high
The panel holds about 79,000 compounds, 15% with a hit somewhere; the sample as a whole holds those more often.
reported.metric: growth inhibition (%)

- COC(=O)C1=C(C)NC(=S)NC1c1ccc(N(CCCl)CCCl)cc1Cl (stereo not given): 96.5
- C[C@@]12CCC(=O)C=C1CC[C@H]1C2=CC[C@]2(C)C1CC[C@@]2(C)O (stereo not given in full): 75.5
- CCN(CC)CC(=O)O[C@]1(CC)C(=O)OCc2c1cc1n(c2=O)Cc2cc3ccccc3nc2-1: 81.5
- CCOP(=S)(OCC)SC(O)(C(F)F)C(F)F: 39.4
- Oc1cccc2cccnc12 (tested in a mixture with another compound): 89.8

---

assay: NCI Yeast Anticancer Drug Screen. Data for the mlh1 rad18 strain (AID 175); settings: S. cerevisiae mlh1 rad18 strain growth inhibition; at 5.0 µM (retest, dose inferred, filed as 0.5); active compounds read high
About 79,000 compounds went through this panel and 15% of them were active in at least one assay; those are over-represented in the sample as a whole.
# maps each entry to its growth inhibition
reported.metric: growth inhibition (%)

• CCCCC(CC)CNP(=S)(NCC(CC)CCCC)NCC(CC)CCCC (stereo unspecified) = -5
• CC1(C)CCC(C)(C)c2cc(Cl)c(O)cc21 = -1
• CCC1CC2C3Cc4ccc(OC)c(O)c4C2(CCN3C)CC1=O (stereo unspecified) = 9
• CCC[As](CCC)SC1CCC2(C)C(=CCC3C4CCC(=O)C4(C)CCC32)C1 (stereo unspecified) = 11
• C/C(=N\N=C(N)N)C(CN1CCOCC1)C(c1ccccc1)c1c(O)c2ccccc2oc1=O (stereo unspecified) = 57
• c1ccc2c(c1)CCc1c-2[nH]c2ccccc12 = -43
• COc1cc(CC(=O)N2CC2)cc(OC)c1OC = -2
• O=C1NC(=S)NC(=O)C1=C/C=C/c1ccccc1 = 29
• Cc1cc(N(CCCl)CCCl)ccc1C=Nc1ccc(-c2csc(COc3ccccc3)n2)c(Cl)c1 = 52
• O=C(c1ccccc1)c1c(CC(O)c2ccccn2)n(C(=O)c2ccccc2)c2ccccc12 (stereo unspecified) = 2
• [O]=[Sb][c]1ccc(Cl)cc1 = 3
